Source: ChEMBL document CHEMBL1833915

# EXPERIMENT: Clearance in Sprague-Dawley rat
# Assay type: ADME, organism-based
# TEST_SETTINGS: in vivo
MEASUREMENT_LABEL: clearance (mL/min/kg)

> print(dat)
                            compound.smiles  reported.result
1  Cc1ccc(S(=O)(=O)N2CCNC(=O)[C@H]2CC(=O)N[C@@H]2CCCc3cc(CN4CCCCC4)ccc32)cc1              123

---

# EXPERIMENT: Half life in Sprague-Dawley rat at 2 mg/kg, iv
# Format: ADME, organism-based
# Design: dose 2 mg/kg, route intravenous
# TEST_SETTINGS: in vivo
MEASUREMENT_LABEL: half-life (h)

> print(dat)
                            compound.smiles  measurement.label  reported.result
1  Cc1nn(-c2ccc(C(=O)N[C@@H]3CCCc4cc(CN5CCCCC5)ccc43)cn2)c(=O)c2c(F)cccc12          half-life              3.3
2  Cc1nn(-c2ccc(C(=O)N[C@@H]3CCCc4cc(CN5CCCCC5)ccc43)cc2)c(=O)c2c(Cl)cccc12          half-life             10.4
3  Cc1nn(-c2ccc(C(=O)N[C@@H]3CCCc4cc(CN5CCCCC5)ccc43)cc2)c(=O)c2ccccc12          half-life              6.1

---

# EXPERIMENT: Volume of distribution at steady state in dog at 1 mg/kg, iv
# Assay type: ADME, organism-based, Canis lupus familiaris
# Set-up: dose 1 mg/kg, route intravenous
# TEST_SETTINGS: in vivo, read-out: Vdss
MEASUREMENT_LABEL: Vd

> print(dat)
                            compound.smiles  measurement.label  reported.result
1  Cc1nn(-c2ccc(C(=O)N[C@@H]3CCCc4cc(CN5CCCCC5)ccc43)cc2)c(=O)c2c(Cl)cccc12                 Vd        10.6 L/kg

---

# key: entry, value: Ki
# TEST_SYSTEM: B1 bradykinin receptor (Homo sapiens)
# Sequence (P46663 whole entry): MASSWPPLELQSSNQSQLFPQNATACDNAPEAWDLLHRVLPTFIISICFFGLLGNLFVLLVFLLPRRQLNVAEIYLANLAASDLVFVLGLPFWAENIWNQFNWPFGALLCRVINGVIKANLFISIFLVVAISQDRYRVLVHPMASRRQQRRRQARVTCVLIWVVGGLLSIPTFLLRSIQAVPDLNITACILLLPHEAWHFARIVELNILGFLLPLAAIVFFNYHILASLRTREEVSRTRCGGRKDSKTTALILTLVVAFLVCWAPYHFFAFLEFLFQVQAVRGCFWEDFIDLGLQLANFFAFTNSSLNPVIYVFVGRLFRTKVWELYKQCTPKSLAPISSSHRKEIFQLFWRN
# EXPERIMENT: Antagonist activity at human B1 receptor
MEASUREMENT_LABEL: Ki (nM)

> print(dat)
                            compound.smiles  relation.symbol  reported.result
1  O=C(Cc1ccc(C(=O)N[C@@H]2CCCc3cc(CN4CCCCC4)ccc32)cc1)c1ccccc1                =              296
2  O=C(N[C@@H]1CCCc2cc(CN3CCCCC3)ccc21)c1cccc(-c2coc3ccccc3c2=O)c1                =               64
3  CCc1nn(-c2ccc(C(=O)N[C@@H]3CCCc4cc(CN5CCCCC5)ccc43)cc2)c(=O)c2ccccc12                =               29
4  O=C(N[C@@H]1CCCc2cc(CN3CCCCC3)ccc21)c1cccc(-n2cnc3ccccc3c2=O)c1                >            10000
5  Cc1nn(-c2ccc(C(=O)N[C@@H]3CCCc4cc(CN5CCCCC5)ccc43)cn2)c(=O)c2c(F)ccc(F)c12                =              0.6
6  Cc1nn(-c2cccc(C(=O)N[C@@H]3CCCc4cc(CN5CCCCC5)ccc43)c2)c(=O)c2ccccc12                =             6370
7  Cc1nn(-c2ccc(C(=O)N[C@@H]3CCCc4cc(CN5CCCCC5)ccc43)cc2)c(=O)c2c(F)cccc12                =              1.9
8  Cc1nn(-c2ccc(C(=O)N[C@@H]3CCCc4cc(CN5CCCCC5)ccc43)cn2)c(=O)c2c(F)cccc12                =              0.6

---

Below is a list of entries, each paired with its recorded Vd value.
# EXPERIMENT: Volume of distribution at steady state in Sprague-Dawley rat at 2 mg/kg, iv
# Assay type: ADME, organism-based
# Design: dose 2 mg/kg, route intravenous
# TEST_SETTINGS: in vivo, read-out: Vdss
MEASUREMENT_LABEL: Vd

> print(dat)
                            compound.smiles  reported.result
1  Cc1nn(-c2ccc(C(=O)N[C@@H]3CCCc4cc(CN5CCCCC5)ccc43)cn2)c(=O)c2c(F)cccc12        6.45 L/kg
2  Cc1nn(-c2ccc(C(=O)N[C@@H]3CCCc4cc(CN5CCCCC5)ccc43)cc2)c(=O)c2c(Cl)cccc12        7.85 L/kg
3  Cc1nn(-c2ccc(C(=O)N[C@@H]3CCCc4cc(CN5CCCCC5)ccc43)cc2)c(=O)c2ccccc12        8.09 L/kg

---

# EXPERIMENT: Oral bioavailability in Sprague-Dawley rat at 5 mg/kg
# Assay type: ADME, organism-based
# TEST_SETTINGS: in vivo
MEASUREMENT_LABEL: bioavailability (%)

> print(dat)
                            compound.smiles  reported.result
1  Cc1nn(-c2ccc(C(=O)N[C@@H]3CCCc4cc(CN5CCCCC5)ccc43)cc2)c(=O)c2c(Cl)cccc12               90
2  Cc1nn(-c2ccc(C(=O)N[C@@H]3CCCc4cc(CN5CCCCC5)ccc43)cc2)c(=O)c2ccccc12               51
3  Cc1nn(-c2ccc(C(=O)N[C@@H]3CCCc4cc(CN5CCCCC5)ccc43)cn2)c(=O)c2c(F)cccc12               61

---

# EXPERIMENT: Clearance in dog at 1 mg/kg, iv
# Assay type: ADME, organism-based, Canis lupus familiaris
# Design: dose 1 mg/kg, route intravenous
# TEST_SETTINGS: in vivo
MEASUREMENT_LABEL: clearance (mL/min/kg)

> print(dat)
                            compound.smiles  reported.result
1  Cc1nn(-c2ccc(C(=O)N[C@@H]3CCCc4cc(CN5CCCCC5)ccc43)cc2)c(=O)c2c(Cl)cccc12               19

---

# TEST_SYSTEM: UniProt P48748
# Sequence (P48748 whole entry): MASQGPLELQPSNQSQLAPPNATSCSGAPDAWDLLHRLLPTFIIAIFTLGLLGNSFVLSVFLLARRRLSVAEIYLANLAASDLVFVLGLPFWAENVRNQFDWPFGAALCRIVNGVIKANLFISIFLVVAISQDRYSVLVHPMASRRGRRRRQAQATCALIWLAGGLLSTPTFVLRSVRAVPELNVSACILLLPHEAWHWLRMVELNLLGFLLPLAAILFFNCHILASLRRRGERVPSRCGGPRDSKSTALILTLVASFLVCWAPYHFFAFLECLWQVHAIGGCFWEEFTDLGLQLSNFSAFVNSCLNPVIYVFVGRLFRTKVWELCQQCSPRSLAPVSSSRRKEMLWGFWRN
# EXPERIMENT: Inhibition of rabbit B1 receptor by cellular calcium flux assay
MEASUREMENT_LABEL: IC50 (nM)

> print(dat)
                            compound.smiles     test.system  value.units  reported.result
1  Cc1ccc(S(=O)(=O)N2CCNC(=O)[C@H]2CC(=O)N[C@@H]2CCCc3cc(CN4CCCCC4)ccc32)cc1  UniProt P48748           nM              4.1
2  Cc1nn(-c2ccc(C(=O)N[C@@H]3CCCc4cc(CN5CCCCC5)ccc43)cn2)c(=O)c2c(F)ccc(F)c12  UniProt P48748           nM              2.2
3  Cc1nn(-c2ccc(C(=O)N[C@@H]3CCCc4cc(CN5CCCCC5)ccc43)cn2)c(=O)c2c(F)cccc12  UniProt P48748           nM              0.6
4  Cc1nn(-c2ccc(C(=O)N[C@@H]3CCCc4cc(CN5CCCCC5)ccc43)cc2)c(=O)c2c(Cl)cccc12  UniProt P48748           nM             21.4

---

# EXPERIMENT: Half life in dog at 1 mg/kg, iv
# Format: ADME, organism-based, Canis lupus familiaris
# Design: dose 1 mg/kg, route intravenous
# TEST_SETTINGS: in vivo
MEASUREMENT_LABEL: half-life

> print(dat)
                            compound.smiles  reported.result
1  Cc1nn(-c2ccc(C(=O)N[C@@H]3CCCc4cc(CN5CCCCC5)ccc43)cc2)c(=O)c2c(Cl)cccc12            8.9 h

---

# TEST_SYSTEM: B1 bradykinin receptor (Homo sapiens, UniProt P46663)
# Sequence (P46663 whole entry): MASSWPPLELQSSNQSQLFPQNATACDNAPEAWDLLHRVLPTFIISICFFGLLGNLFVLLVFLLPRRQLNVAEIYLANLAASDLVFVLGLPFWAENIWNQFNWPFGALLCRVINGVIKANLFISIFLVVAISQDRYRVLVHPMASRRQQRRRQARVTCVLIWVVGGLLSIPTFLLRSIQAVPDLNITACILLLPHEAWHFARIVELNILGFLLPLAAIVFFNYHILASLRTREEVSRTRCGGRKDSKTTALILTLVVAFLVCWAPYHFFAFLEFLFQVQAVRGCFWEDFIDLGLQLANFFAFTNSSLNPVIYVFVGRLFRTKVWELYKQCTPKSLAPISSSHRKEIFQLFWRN
# EXPERIMENT: Antagonist activity at human B1 receptor
Each entry below carries its recorded Ki.
MEASUREMENT_LABEL: Ki

> print(dat)
                            compound.smiles  measurement.label  reported.result
1  Cc1nn(-c2ccc(C(=O)N[C@@H]3CCCc4cc(CN5CCCCC5)ccc43)cc2)c(=O)c2c(Cl)cccc12                 Ki           0.9 nM
2  O=C(CCCCC(=O)c1ccccc1)N[C@@H]1CCCc2cc(CN3CCCCC3)ccc21                 Ki          1680 nM
3  O=C(N[C@@H]1CCCc2cc(CN3CCCCC3)ccc21)c1ccc(-n2nc(-c3ccccc3)c3ccccc3c2=O)cc1                 Ki           418 nM
4  O=C(N[C@@H]1CCCc2cc(CN3CCCCC3)ccc21)c1ccc(-n2cnc3ccccc3c2=O)cc1                 Ki           614 nM
5  Cc1nn(-c2ccc(C(=O)N[C@@H]3CCCc4cc(CN5CCCCC5)ccc43)cc2)c(=O)c2c(F)ccc(F)c12                 Ki           3.5 nM
6  Cc1nn(-c2ccc(C(=O)N[C@@H]3CCCc4cc(CN5CCCCC5)ccc43)cc2)c(=O)c2ccccc12                 Ki            35 nM
